SUBJECT OF TEST: UniProt:O43193
EXPERIMENT NOTES: Competitive radioligand binding assay (Method B1)
Set-up: purchased PerkinElmer 6110544; host or cells: CHO cells, stably transfected (membranes)
CONDITION: Radioligand competitive binding assay, Method B1; values reported as ranges; read-out: Ki (binding activity)
pKi: −log10 of the molar value.
Entries annotated with measured pKi

CCC[C@@H]1NC(=O)[C@@H](C(C)C)NC(=O)[C@@H](Cc2c[nH]c3ccccc23)NCCOc2ccccc2CCCNC1=O [Compound 17] = 6.00 to 7.00
CC(C)[C@H]1NC(=O)[C@@H](Cc2cccc(Cl)c2)NCCOc2ccccc2CCCNC(=O)[C@H](CN)NC1=O [Compound 155] = 7.00 to 9.00
CCCC1NC(=O)C(C)NC(=O)C(Cc2ccc(O)cc2)NCCOc2ccccc2C=CCNC1=O (centres unmarked) [Compound 5] = 6.00 to 7.00

Data request: # get_value(readout='pKi', item= CCCC1NC(=O)C(Cc2ccc(O)cc2)NC(=O)C(Cc2ccc(O)cc2)NCCOc2ccccc2C=CCNC1=O (centres unmarked) [Compound 34] )
Data returned: 6.00 to 7.00

Data request: Fill in the blank: the reported pKi of CCC[C@@H]1NC(=O)[C@@H](C(C)C)NC(=O)[C@@H](Cc2cccc(OC)c2)NCCOc2ccccc2CCCNC1=O [Compound 165] is ____.
Data returned: 7.00 to 9.00

Data request: # input compound: CCC1NC(=O)C(C(C)C)NC(=O)C(Cc2ccc(O)cc2)NCCOc2ccccc2C=CCNC1=O (centres unmarked) [Compound 12] ; wanted: its pKi
Data returned: 6.00 to 7.00

Data request: If you can, please state the reported pKi value of CCCC1NC(=O)C(C(C)C)NC(=O)C(Cc2ccc(O)cc2)NCCOc2cccnc2CCCNC1=O (centres unmarked) [Compound 110] .
Data returned: 6.00 to 7.00

Data request: Look at this compound and give its reported pKi. CC(C)C1NC(=O)C(Cc2cccs2)NCCOc2ccccc2CCCNC(=O)C(CN)NC1=O (centres unmarked) [Compound 154]
Data returned: 6.00 to 7.00

Data request: Quick check: pKi of CC(C)CC1NC(=O)C(C(C)C)NC(=O)C(Cc2ccc(F)cc2)NCCOc2cccnc2CCCNC1=O (centres unmarked) [Compound 140] ?
Data returned: 6.00 to 7.00

Data request: # pKi lookup, item CCC[C@@H]1NC(=O)[C@@H](C(C)C)NC(=O)[C@@H](Cc2ccc(Cl)cc2)NCCOc2ccccc2CCCNC1=O [Compound 16]
Data returned: 7.00 to 9.00

Data request: I have this compound here, CC(C)[C@H]1NC(=O)[C@@H](Cc2ccc(Cl)cc2)NCCOc2ccccc2CCCNC(=O)[C@H](CN)NC1=O [Compound 156] , and I need its recorded pKi.
Data returned: 7.00 to 9.00

Data request: Look up pKi for this compound: CCCC1NC(=O)C(CC)NC(=O)C(Cc2ccc(O)cc2)NCCOc2ccccc2CCCNC1=O (centres unmarked) [Compound 18]
Data returned: 6.00 to 7.00

Data request: Which measured pKi value corresponds to CCCC1NC(=O)C(C(C)C)NC(=O)C(Cc2ccc(O)cc2)NCCN(C)CCNC1=O (centres unmarked) [Compound 99] ?
Data returned: 5.00 to 6.00

Data request: # query: pKi of entry CC(C)C1NC(=O)C(Cc2ccc(O)cc2)NCCOc2ccccc2C=CCNC(=O)CNC1=O (centres unmarked) [Compound 40]
Data returned: 5.00 to 6.00

Data request: Which pKi reading was recorded for the compound CCCC1NC(=O)CCNC(=O)C(Cc2ccc(O)cc2)NCCOc2ccccc2CCCNC1=O (centres unmarked) [Compound 96] ?
Data returned: 5.00 to 6.00

Data request: Recorded pKi for CC(C)C[C@@H]1NC(=O)[C@@H](C(C)C)NC(=O)[C@@H](Cc2ccc(Cl)cc2)NCCOc2ccccc2CCCNC1=O [Compound 132] , please?
Data returned: 7.00 to 9.00

Data request: Find the recorded pKi belonging to CCCC1NC(=O)C(C(C)C)NC(=O)C(Cc2ccc(O)cc2)NCCOc2cccc(c2)OCCNC1=O (centres unmarked) [Compound 71] and report it.
Data returned: 6.00 to 7.00

====

# maps each entry to its Ki
SUBJECT OF TEST: UniProtKB O43193
EXPERIMENT NOTES: Competitive radioligand binding assay (Method B1)
Design: purchased PerkinElmer 6110544; host or cells: CHO cells, stably transfected (membranes)
CONDITION: Radioligand competitive binding assay, Method B1; values reported as ranges; read-out: Ki (binding activity)

COc1ccc(C[C@H]2NCCOc3ccccc3CCCNC(=O)[C@H](CC3CC3)NC(=O)[C@@H](C(C)C)NC2=O)cc1 = 1 to 100 nM
COc1ccc(CC2NCCOc3ccccc3CCCNC(=O)C(CO)NC(=O)C(C(C)C)NC2=O)cc1 (stereo not shown) = 100 to 1000 nM
CCCC1NC(=O)C(C(C)C)NC(=O)C(Cc2ccc(-c3ccccc3)cc2)NCCOc2ccccc2CCCNC1=O (stereo not shown) = 100 to 1000 nM

Next, consider the following molecule.
Data request: Data request, read-out Ki, for CCCC1NC(=O)C(C(C)C)NC(=O)C(Cc2ccccc2Cl)NCCOc2ccccc2CCCNC1=O (stereo not shown)
Data returned: 100 to 1000 nM

====

SUBJECT OF TEST: human motilin receptor (Homo sapiens)
EXPERIMENT NOTES: Competitive radioligand binding assay (Method B1)
Set-up: purchased PerkinElmer 6110544; host or cells: CHO cells, stably transfected (membranes)
CONDITION: [125I]-motilin competition, CHO cell membranes with human motilin receptor; read-out: Binding activity (Ki)
pKi: −log10 of the molar value.
PARAMETER MEASURED: pKi

Data request: Tell me the measured pKi of CCCC1NC(=O)C(C(C)C)NC(=O)C(Cc2ccc(O)cc2)NCCOc2ccccc2C=CCNC1=O (stereo not shown) , please.
Data returned: 6.00 to 7.00

====

SUBJECT OF TEST: human motilin receptor (Homo sapiens, UniProt O43193)
Sequence (O43193 whole entry): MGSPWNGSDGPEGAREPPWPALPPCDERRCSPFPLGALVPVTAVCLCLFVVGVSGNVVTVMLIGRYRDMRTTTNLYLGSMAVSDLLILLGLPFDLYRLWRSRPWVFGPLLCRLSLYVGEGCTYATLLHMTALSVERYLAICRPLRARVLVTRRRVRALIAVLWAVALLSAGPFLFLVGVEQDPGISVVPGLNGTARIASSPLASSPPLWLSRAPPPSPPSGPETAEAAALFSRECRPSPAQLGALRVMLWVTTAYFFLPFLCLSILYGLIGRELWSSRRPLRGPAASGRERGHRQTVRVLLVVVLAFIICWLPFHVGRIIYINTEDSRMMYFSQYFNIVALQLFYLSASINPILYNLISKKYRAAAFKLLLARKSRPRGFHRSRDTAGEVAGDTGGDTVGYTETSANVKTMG
EXPERIMENT NOTES: Competitive radioligand binding assay (Method B1)
Design: purchased PerkinElmer 6110544; host or cells: CHO cells, stably transfected (membranes)
CONDITION: Radioligand competitive binding assay, Method B1; values reported as ranges; read-out: Ki (binding activity)
Description: Competitive Radioligand Binding Assay (Motilin Receptor) • Membranes were prepared from CHO cells stably transfected with the human motilin receptor and utilized at a quantity of 1.5 μg/assay point. Final Test Concentrations (N=11) for Compounds: […] Data are analyzed by GraphPad™ Prism (GraphPad Software, San Diego, Calif.) using a variable slope non-linear regression analysis. […]
Ki: recorded values

Worked examples follow.
CCCC1NC(=O)C(Cc2ccccc2)NC(=O)C(Cc2ccc(O)cc2)NCCOc2ccccc2C=CCNC1=O (stereo not drawn) = 1000 to 10000 nM
CCC[C@@H]1NC(=O)[C@@H](C(C)C)NC(=O)[C@@H](Cc2ccc(F)c(F)c2)NCCOc2ccccc2CCCNC1=O = 1 to 100 nM
CC(C)[C@H]1NC(=O)[C@@H](Cc2ccc(O)cc2)NCCOc2ccccc2CCCNC(=O)[C@H](CC2CC2)NC1=O = 1 to 100 nM
CCC[C@@H]1NC(=O)[C@@H](C(C)C)NC(=O)[C@@H](Cc2ccc(Cl)c(Cl)c2)NCCOc2ccccc2CCCNC1=O = 1 to 100 nM

Data request: Ki lookup needed for CC(C)C1NC(=O)C(Cc2ccc(O)cc2)NCCOc2ccccc2C=CCNC(=O)C(C(C)C)NC1=O (stereo not drawn) , thanks.
Data returned: 100 to 1000 nM

Data request: Request the reported Ki associated with CCCC1NC(=O)C(C2CCCCC2)NC(=O)C(Cc2ccc(O)cc2)NCCOc2ccccc2CCCNC1=O (stereo not drawn)
Data returned: 1000 to 10000 nM

====

SUBJECT OF TEST: human motilin receptor (Homo sapiens)
EXPERIMENT NOTES: Competitive radioligand binding assay (Method B1)
Set-up: purchased PerkinElmer 6110544; host or cells: CHO cells, stably transfected (membranes)
CONDITION: Radioligand competitive binding assay, Method B1; values reported as ranges; read-out: Ki (binding activity)
pKi: −log10 of the molar value.
// pKi lookup, one value per entry

Here is how some compounds turned out for pKi.
CC(C)C1NC(=O)C(Cc2ccc(O)cc2)NCCOc2ccccc2C=CCNC(=O)C(Cc2c[nH]c3ccccc23)NC1=O (stereo not drawn) = 6.00 to 7.00
CC(C)CC1NC(=O)C(C(C)C)NC(=O)C(Cc2cccc3ccccc23)NCCOc2cccnc2CCCNC1=O (stereo not drawn) = 6.00 to 7.00
CCCC1NC(=O)C(C(C)CC)NC(=O)C(Cc2ccc(O)cc2)NCCOc2ccccc2CCCNC1=O (stereo not drawn) [Compound 159] = 6.00 to 7.00

Data request: Quick one: pKi of CCCC1NC(=O)C(C(C)C)NC(=O)C(Cc2ccccc2C)NCCOc2ccccc2CCCNC1=O (stereo not drawn) ?
Data returned: 6.00 to 7.00

Data request: Form field: reported pKi of COc1ccc(CC2NCCOc3cccnc3CCCNC(=O)C(CC(C)C)NC(=O)C(C(C)C)NC2=O)cc1 (stereo not drawn)
Data returned: 6.00 to 7.00

Data request: # lookup: pKi of CC(C)CC1NC(=O)C(C(C)C)NC(=O)C(Cc2ccccc2)NCCOc2ccccc2CCCNC1=O (stereo not drawn)
Data returned: 6.00 to 7.00
